Collected Ligand Efficiency (LE) nsp14 values appear next to each entry.
target.desc: SARS-CoV-2 nsp14 (Severe acute respiratory syndrome coronavirus 2)
measurement.notes: biochemical
stated.conditions: estimated from IC50 values
# output: bare number, implied unit kcal/mol

See these solved cases before continuing.
O=C(CCCn1cncn1)N1CCCC(c2nc3ccccc3s2)C1 (stereo not drawn)    0.23
O=C(Cn1c(=O)[nH]c2c(-c3ccccc3)c[nH]c2c1=O)NCc1cccnc1    0.19

As a next step, examine the compound that follows.
Q: # get_value(readout='Ligand Efficiency (LE) nsp14', item= `Nc1ncnc2c1ncn2[C@@H]1O[C@H](COC(=O)c2ccc(S(=O)(=O)F)cc2)[C@@H](O)[C@H]1O` )
Result: 0.19

----------
target.desc: SARS-CoV-2 nsp16/nsp10 (Severe acute respiratory syndrome coronavirus 2, UniProt P0DTD1)
measurement.notes: biochemical
stated.conditions: 100 μM
assay.endpoint: Percent inhibition at 100 μM, nsp16

Q: Enter reported Percent inhibition at 100 μM, nsp16 observed with SARS-CoV-2 nsp16/nsp10 (Severe acute respiratory syndrome coronavirus 2, UniProt P0DTD1) for O=C(CCc1cncnc1)N1CCCC(c2nc3ccccc3s2)C1 (centres unmarked)
Result: -45 ±13%

Q: Please do the same for CC(C)CC(C(=O)OCC(=O)Nc1cccc(Cl)c1)N1C(=O)C2CC=CCC2C1=O (centres unmarked) as well.
Result: 37 ±9%

----------
target.desc: SARS-CoV-2 nsp16/nsp10 (Severe acute respiratory syndrome coronavirus 2)
measurement.notes: biochemical
stated.conditions: 100 μM
// Percent inhibition at 100 μM, nsp16 lookup, one value per entry
Answer format: numeric, % implied, no suffix.

Look over these answered cases.
O=C(CC1(O)C(=O)N(Cc2ccc3c(c2)OCO3)c2ccccc21)c1ccc(F)cc1 (centres unmarked)    -3
CN(C)c1nc2c(c(N(C)C)n1)CCN(C(=O)[C@@H](N)Cc1ccc(O)cc1)C2    9
CN(CCNc1nc2c(c(=O)[nH]1)Cc1ccccc1OC2)S(C)(=O)=O    -4
Cn1nccc1CCC(=O)N1CCCC(c2nc3ccccc3s2)C1 (centres unmarked)    33
CCOc1c(Cl)cc(C(=O)Nc2cccc(C(=O)O)c2)cc1Cl    14
O=C(O)c1cc(CN2CC[C@@H](c3ccc4ccccc4c3)[C@H](O)C2)ccc1O    -2
Nc1ncnc2c1ncn2[C@@H]1O[C@H](C(=O)NC2CC2)[C@@H](O)[C@H]1O    54

Q: What does the data say about its Percent inhibition at 100 μM, nsp16? Entry: CC(C)N(CC1OC(n2cnc3c(N)ncnc32)C(O)C1O)C1CC(CCc2nc3cc(C(C)(C)C)ccc3[nH]2)C1 (centres unmarked)
Result: 68

----------
target.desc: SARS-CoV-2 nsp16/nsp10 (Severe acute respiratory syndrome coronavirus 2)
measurement.notes: biochemical
stated.conditions: 100 μM
assay.endpoint: Percent inhibition at 100 μM, nsp16

O=C(CP(=O)(O)O)N=c1[nH]c2ccc(Cl)cc2s1    17 ±7%
COc1ccc(N2C(=O)CC(c3c(C)[nH]n(-c4nc5ccccc5s4)c3=O)C2=O)cc1 (stereo not shown)    17 ±6%
Nc1nc2c(c(=O)[nH]1)CC(CCc1ccc(C(=O)NC(CCC(=O)O)C(=O)O)cc1)CN2 (stereo not shown)    15 ±10%

Let us move to another entry and its Percent inhibition at 100 μM, nsp16.
Q: Please report the recorded Percent inhibition at 100 μM, nsp16 for O=C(NCc1cccnc1)C1CC(NCc2c(F)cccc2F)CN1Cc1ccccc1 (stereo not shown) .
Result: 8 ±5%
